Could you please report measured inhibition for the items listed next?
Biological target: Sodium channel protein type 10 subunit alpha (Homo sapiens)
Experiment: Inhibition of human recombinant Nav 1.8 channel expressed in HEK293 cells at 0.03 uM
Assay type: cell-based
Write down the numeric answer in % and omit the unit.

## Input // query inhibition value for entry Cc1cccc(NC(=O)c2ccc(-c3ccc(C#N)cc3)o2)c1
## Output 51

## Input Given the compound Cc1cccc(NC(=O)c2ccc(-c3ccc(Cl)cc3)o2)c1 , what is its reported inhibition?
## Output 68

## Input Entry Cc1cccc(N/C(=N/C#N)c2ccc(-c3ccc(Cl)cc3)o2)c1 : reported inhibition = ?
## Output 99

## Input Recorded inhibition of CN1CCCc2cc(NC(=O)c3ccc(-c4ccc(Cl)cc4)o3)ccc21 , please.
## Output 55

====

Target: Nav1.5 (sodium channel protein type 5 subunit alpha) (Homo sapiens)
Assay: Inhibition of human Nav1.5 channel at 0.03 uM
property: inhibition at 0.03 µM
# answer = value followed by unit

## Input Which inhibition at 0.03 µM is reported for this molecule? Cc1cccc(N/C(=N/C#N)c2ccc(-c3ccc(Cl)cc3)o2)c1
## Output 32%

====

Assay: Activity at rat dorsal root ganglion in inactivated state with prepulse voltage of -40 mV assessed as blockade of TTx-resistant sodium current at 0.1 uM by whole-cell patch clamp technique
Format: functional
property: inhibition at 0.1 µM (%)
Supply the numeric figure in %, leaving out any unit text.

## Input What does the record list as inhibition at 0.1 µM for Cc1cccc(NC(=O)c2ccc(-c3ccc(OC(F)(F)F)cc3)o2)c1 ?
## Output 40

## Input If you can, please state the reported inhibition at 0.1 µM value of COc1cc(NC(=O)c2ccc(-c3ccc(Cl)cc3)o2)cc(OC)c1 .
## Output 48

## Input Could you share which inhibition at 0.1 µM value was measured for Cc1cccc(NC(=O)c2ccc(-c3ccc(Cl)cc3)o2)c1 ?
## Output 37

## Input Quick check: inhibition at 0.1 µM of Cc1cccc(NC(=O)c2ccc(-c3ccc(C#N)cc3)o2)c1 ?
## Output 41

====

Biological target: Sodium channel protein type 10 subunit alpha (Mus musculus, UniProt Q6QIY3)
Sequence (Q6QIY3 whole entry): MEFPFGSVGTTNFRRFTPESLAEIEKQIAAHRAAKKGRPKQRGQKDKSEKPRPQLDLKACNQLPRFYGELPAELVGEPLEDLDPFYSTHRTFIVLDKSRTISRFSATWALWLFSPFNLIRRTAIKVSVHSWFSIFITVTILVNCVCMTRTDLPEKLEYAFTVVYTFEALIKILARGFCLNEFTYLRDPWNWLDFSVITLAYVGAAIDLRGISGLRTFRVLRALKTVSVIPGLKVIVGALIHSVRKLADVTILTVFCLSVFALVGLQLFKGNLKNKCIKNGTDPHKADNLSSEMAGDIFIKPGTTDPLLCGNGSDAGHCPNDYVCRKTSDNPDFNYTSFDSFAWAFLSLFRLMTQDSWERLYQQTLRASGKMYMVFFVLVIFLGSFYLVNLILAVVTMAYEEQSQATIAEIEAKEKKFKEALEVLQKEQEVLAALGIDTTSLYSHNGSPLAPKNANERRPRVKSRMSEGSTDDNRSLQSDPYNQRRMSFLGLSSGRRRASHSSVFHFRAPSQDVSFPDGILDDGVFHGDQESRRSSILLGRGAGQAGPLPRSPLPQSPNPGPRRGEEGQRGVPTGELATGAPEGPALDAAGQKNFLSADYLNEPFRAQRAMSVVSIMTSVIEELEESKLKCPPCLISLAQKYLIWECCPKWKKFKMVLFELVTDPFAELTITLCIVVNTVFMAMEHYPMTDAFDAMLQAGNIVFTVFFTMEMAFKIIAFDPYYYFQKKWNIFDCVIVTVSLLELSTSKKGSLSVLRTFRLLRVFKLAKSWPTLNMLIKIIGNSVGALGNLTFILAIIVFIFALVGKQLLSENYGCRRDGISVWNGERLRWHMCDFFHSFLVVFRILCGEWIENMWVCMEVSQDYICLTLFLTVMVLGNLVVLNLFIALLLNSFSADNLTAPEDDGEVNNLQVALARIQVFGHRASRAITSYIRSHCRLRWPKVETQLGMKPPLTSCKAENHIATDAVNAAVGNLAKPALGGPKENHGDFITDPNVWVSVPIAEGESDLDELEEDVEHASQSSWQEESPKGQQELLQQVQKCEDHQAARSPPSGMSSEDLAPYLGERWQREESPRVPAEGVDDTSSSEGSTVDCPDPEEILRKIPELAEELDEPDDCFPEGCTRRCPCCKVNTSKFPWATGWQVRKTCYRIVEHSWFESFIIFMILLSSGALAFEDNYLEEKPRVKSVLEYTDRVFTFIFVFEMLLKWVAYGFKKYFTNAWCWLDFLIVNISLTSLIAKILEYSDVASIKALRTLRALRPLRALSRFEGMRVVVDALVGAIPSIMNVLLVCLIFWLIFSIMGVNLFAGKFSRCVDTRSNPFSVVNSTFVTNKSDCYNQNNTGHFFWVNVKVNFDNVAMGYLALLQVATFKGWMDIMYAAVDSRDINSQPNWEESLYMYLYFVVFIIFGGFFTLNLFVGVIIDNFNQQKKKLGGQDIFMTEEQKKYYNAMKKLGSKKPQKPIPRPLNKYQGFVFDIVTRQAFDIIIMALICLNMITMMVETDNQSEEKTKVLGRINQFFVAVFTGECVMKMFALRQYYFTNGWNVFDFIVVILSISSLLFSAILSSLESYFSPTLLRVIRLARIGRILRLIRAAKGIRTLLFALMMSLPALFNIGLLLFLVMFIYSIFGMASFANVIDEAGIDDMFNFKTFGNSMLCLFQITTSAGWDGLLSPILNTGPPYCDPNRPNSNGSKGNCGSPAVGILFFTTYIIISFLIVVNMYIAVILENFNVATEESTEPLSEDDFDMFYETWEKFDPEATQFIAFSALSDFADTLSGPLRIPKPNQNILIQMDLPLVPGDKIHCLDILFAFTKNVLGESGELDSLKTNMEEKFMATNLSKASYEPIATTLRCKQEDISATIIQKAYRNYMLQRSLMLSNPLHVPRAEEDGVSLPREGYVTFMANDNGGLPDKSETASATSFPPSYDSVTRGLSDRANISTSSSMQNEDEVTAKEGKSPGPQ
Test: Inhibition of mouse recombinant Nav 1.8 channel expressed in HEK293 cells by isotopic efflux assay
property: IC50 (µM)
Numeric answer only, unit µM assumed.

## Input Returns the measured IC50 for the input molecule. Input: N#CCc1cccc(NC(=O)c2ccc(-c3ccc(Cl)cc3)o2)c1
## Output 1.7

## Input Item under review: Cc1cccc(NC(=O)c2ccc(-c3ccc(C#N)cc3)o2)c1 . Reported IC50?
## Output 0.48

## Input Would you mind telling me what IC50 value was observed for Cc1cccc(NC(=O)c2ccc(-c3cccc(C(F)(F)F)c3)o2)c1 ?
## Output 7.5

## Input Please look up its IC50: Cc1cccc(NC(=O)c2ccc(-c3ccc(Cl)cc3)o2)c1
## Output 0.48

## Input Report IC50 for O=C(Nc1ccc2ncccc2c1)c1ccc(-c2ccc(Cl)cc2)o1 please.
## Output 10

## Input I have this molecule here, COc1cc(NC(=O)c2ccc(-c3ccc(Cl)cc3)o2)cc(OC)c1 , and I need its recorded IC50.
## Output 0.85

## Input // lookup IC50 for O=C(Nc1ccc2cc[nH]c2c1)c1ccc(-c2ccc(Cl)cc2)o1
## Output 3.1

## Input Value lookup for IC50; key = O=C(NCCc1ccccc1Cl)c1ccc(-c2ccc(Cl)cc2)o1
## Output 1.9

## Input So what does the record say about IC50 for CN1CCCc2cc(NC(=O)c3ccc(-c4ccc(Cl)cc4)o3)ccc21 ?
## Output 2.9

====

Target: Sodium channel protein type 10 subunit alpha (Mus musculus)
Assay: Inhibition of mouse recombinant Nav 1.8 channel expressed in HEK293 cells by isotopic efflux assay
Kindly supply the reported IC50 values for the records listed here.
Report the figure in nM without appending any unit label.

## Input Could you share which IC50 value was measured for CN1CCOc2cc(NC(=O)c3ccc(-c4ccc(Cl)cc4)o3)ccc21 ?
## Output 970

## Input // query IC50 value for entry Cc1cccc(N(C)C(=O)c2ccc(-c3ccc(Cl)cc3)o2)c1
## Output 3400

## Input // lookup IC50 for CN(C)C1CCN(C(=O)c2ccc(-c3ccc(Cl)cc3)o2)CC1
## Output 5200

## Input Requested field: IC50. Item: Cc1cccc(NC(=N)c2ccc(-c3ccc(Cl)cc3)o2)c1.Cl
## Output 1900

## Input Can you share its IC50? I mean this compound: Cc1ccccc1CNC(=O)c1ccc(-c2ccc(Cl)cc2)o1
## Output 1100

## Input // lookup IC50 for Cc1cccc(NC(=O)c2ccc(-c3cccc(C#N)c3)o2)c1
## Output 30000

## Input Item Cc1cccc(NC(=O)c2coc(-c3ccc(Cl)cc3)c2)c1 has what recorded IC50?
## Output 20000

## Input I'd like to know its IC50. The compound in question is O=C(Nc1cccc(N2CCOCC2)c1)c1ccc(-c2ccc(Cl)cc2)o1
## Output 4600

## Input Consider the compound shown here: Cc1cccc(N/C(=N/C#N)c2ccc(-c3ccc(Cl)cc3)o2)c1 What is its recorded IC50?
## Output 30

## Input Returns the measured IC50 for the input compound. Input: CCOc1ccc(-c2ccc(C(=O)Nc3cccc(C)c3)o2)cc1
## Output 430

## Input What does the record list as IC50 for Cc1cc(NC(=O)c2ccc(-c3ccc(Cl)cc3)o2)ccn1 ?
## Output 2500

====

Could you please report measured inhibition at 1 µM for the items listed next?
Biological target: Nav1.5 (sodium channel protein type 5 subunit alpha) (Homo sapiens, UniProt Q14524)
Sequence (Q14524 whole entry): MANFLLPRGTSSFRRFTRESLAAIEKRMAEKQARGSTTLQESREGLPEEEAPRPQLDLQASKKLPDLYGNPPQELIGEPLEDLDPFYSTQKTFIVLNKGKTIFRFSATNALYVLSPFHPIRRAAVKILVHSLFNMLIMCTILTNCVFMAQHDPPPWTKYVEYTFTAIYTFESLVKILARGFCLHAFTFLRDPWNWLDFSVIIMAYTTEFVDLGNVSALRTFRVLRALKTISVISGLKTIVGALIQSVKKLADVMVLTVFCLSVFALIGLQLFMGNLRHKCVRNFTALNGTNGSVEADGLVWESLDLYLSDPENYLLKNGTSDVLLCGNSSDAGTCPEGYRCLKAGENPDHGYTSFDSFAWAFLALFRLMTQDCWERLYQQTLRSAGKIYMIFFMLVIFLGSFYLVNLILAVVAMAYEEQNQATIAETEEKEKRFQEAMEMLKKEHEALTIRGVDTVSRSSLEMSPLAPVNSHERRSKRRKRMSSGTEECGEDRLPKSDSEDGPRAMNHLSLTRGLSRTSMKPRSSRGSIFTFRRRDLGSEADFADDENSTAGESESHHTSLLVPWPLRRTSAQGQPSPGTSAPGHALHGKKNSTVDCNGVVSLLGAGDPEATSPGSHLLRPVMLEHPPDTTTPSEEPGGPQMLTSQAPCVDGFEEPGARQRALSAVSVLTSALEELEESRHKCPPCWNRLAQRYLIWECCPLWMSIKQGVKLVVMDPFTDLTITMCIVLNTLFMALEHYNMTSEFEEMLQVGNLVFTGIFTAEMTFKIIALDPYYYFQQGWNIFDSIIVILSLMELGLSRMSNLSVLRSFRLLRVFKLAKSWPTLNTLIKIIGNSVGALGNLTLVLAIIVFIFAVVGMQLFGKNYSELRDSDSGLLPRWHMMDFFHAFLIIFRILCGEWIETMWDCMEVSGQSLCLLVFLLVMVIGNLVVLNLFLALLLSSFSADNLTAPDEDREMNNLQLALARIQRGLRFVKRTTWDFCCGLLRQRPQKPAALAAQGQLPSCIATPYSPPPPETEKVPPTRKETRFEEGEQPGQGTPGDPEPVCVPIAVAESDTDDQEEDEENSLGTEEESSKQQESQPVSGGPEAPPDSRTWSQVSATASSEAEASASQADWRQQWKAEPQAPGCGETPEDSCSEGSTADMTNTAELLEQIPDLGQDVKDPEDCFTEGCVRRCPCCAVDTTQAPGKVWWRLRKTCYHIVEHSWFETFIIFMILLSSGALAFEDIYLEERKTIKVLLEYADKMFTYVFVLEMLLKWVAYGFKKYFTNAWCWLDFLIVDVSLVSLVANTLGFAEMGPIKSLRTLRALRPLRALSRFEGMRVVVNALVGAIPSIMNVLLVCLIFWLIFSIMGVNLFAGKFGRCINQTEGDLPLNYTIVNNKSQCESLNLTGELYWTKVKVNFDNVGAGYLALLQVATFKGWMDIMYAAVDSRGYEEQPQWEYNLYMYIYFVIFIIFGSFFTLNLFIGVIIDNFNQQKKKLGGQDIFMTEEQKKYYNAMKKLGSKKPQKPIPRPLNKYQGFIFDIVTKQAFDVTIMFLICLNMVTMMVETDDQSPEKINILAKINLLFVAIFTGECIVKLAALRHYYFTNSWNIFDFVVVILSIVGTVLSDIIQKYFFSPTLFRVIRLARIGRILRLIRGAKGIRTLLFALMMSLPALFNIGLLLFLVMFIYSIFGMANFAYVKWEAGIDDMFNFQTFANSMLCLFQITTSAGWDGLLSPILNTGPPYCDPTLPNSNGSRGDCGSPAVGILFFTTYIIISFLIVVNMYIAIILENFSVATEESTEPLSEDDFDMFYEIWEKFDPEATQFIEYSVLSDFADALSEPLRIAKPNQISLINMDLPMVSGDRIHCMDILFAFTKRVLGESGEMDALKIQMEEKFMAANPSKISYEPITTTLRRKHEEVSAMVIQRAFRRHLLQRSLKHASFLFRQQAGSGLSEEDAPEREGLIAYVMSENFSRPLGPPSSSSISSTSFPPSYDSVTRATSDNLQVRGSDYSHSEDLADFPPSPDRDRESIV
Experiment: Inhibition of human Nav1.5 channel at 1 uM
Conditions: human
Field: numeric (%). Do not append units.

## Input Identify the measured inhibition at 1 µM of Cc1cccc(NC(=N)c2ccc(-c3ccc(Cl)cc3)o2)c1.Cl for Nav1.5 (sodium channel protein type 5 subunit alpha) (Homo sapiens, UniProt Q14524).
## Output 56

## Input What inhibition at 1 µM appears in the records for this molecule with Nav1.5 (sodium channel protein type 5 subunit alpha) (Homo sapiens, UniProt Q14524)? Cc1ccnc(NC(=O)c2ccc(-c3ccc(Cl)cc3)o2)c1
## Output 24

## Input Lookup: inhibition at 1 µM / Nav1.5 (sodium channel protein type 5 subunit alpha) (Homo sapiens, UniProt Q14524) / Cc1cccc(NC(=O)c2ccc(-c3ccc(OC(F)(F)F)cc3)o2)c1
## Output 87

====

Give microsomal CLint for every item shown.
Test: Intrinsic clearance in Sprague-Dawley rat microsomes after 1 hr
Type: ADME, Liver, Microsome
# output: numeric value plus its unit

## Input Report microsomal CLint for Cc1cccc(NC(=N)c2ccc(-c3ccc(Cl)cc3)o2)c1.Cl please.
## Output 220 µL/min/mg

## Input Value lookup for microsomal CLint; key = COc1cc(NC(=O)c2ccc(-c3ccc(Cl)cc3)o2)cc(OC)c1
## Output 140 µL/min/mg

## Input Which value of microsomal CLint has been reported for Cc1cccc(NC(=O)c2ccc(-c3ccc(C#N)cc3)o2)c1 in the records?
## Output 260 µL/min/mg

====

Assay: Ratio of drug level in brain to plasma in Sprague-Dawley rat
Assay type: ADME
property: Kp
No unit in the answer, please; the number alone is enough.

## Input Please give the measured Kp for this molecule: Cc1cccc(NC(=O)c2ccc(-c3ccc(C#N)cc3)o2)c1
## Output 0.35

## Input Kp for COc1cc(NC(=O)c2ccc(-c3ccc(Cl)cc3)o2)cc(OC)c1 ?
## Output 1.1

====

Molecular target: Sodium channel protein type 10 subunit alpha (Homo sapiens)
Test: Inhibition of human recombinant Nav 1.8 channel expressed in HEK293 cells
property: pIC50
When answering, recall that pIC50 equals minus log10 of the concentration in mol/L, and write that number alone.

## Input Using the record for Cc1cccc(NC(=O)c2ccc(-c3ccc(C#N)cc3)o2)c1 , report its pIC50.
## Output 7.10

====

Assay: Half life in Sprague-Dawley rat
Format: ADME, organism-based
Conditions: in vivo
I'd appreciate it if you could supply half-life values for the items below.
Provide the reading as a plain figure in h.

## Input So what does the record say about half-life for Cc1cccc(NC(=O)c2ccc(-c3ccc(C#N)cc3)o2)c1 ?
## Output 1.9

## Input // half-life lookup, key: COc1cc(NC(=O)c2ccc(-c3ccc(Cl)cc3)o2)cc(OC)c1
## Output 7.3

====

property: IC50

## Input Reported IC50 for Cholecystokinin receptor type A (Homo sapiens), given COc1cc(NC(=O)c2ccc(-c3ccc(Cl)cc3)o2)cc(OC)c1 ?
## Output > 2 µM

====

Kindly state inhibition for each of the entries shown.
Molecular target: Sodium channel protein type 2 subunit alpha (Homo sapiens)
Test: Inhibition of human Nav1.2 channel at 1 uM
The answer is to be given in %; state only the numeric part.

## Input Param item = Cc1cccc(NC(=O)c2ccc(-c3ccc(Cl)cc3)o2)c1 ; retrieve measured inhibition.
## Output 33

## Input Need inhibition, item Cc1cccc(NC(=O)c2ccc(-c3ccc(OC(F)(F)F)cc3)o2)c1
## Output 84

## Input Value lookup for inhibition; key = Cc1ccnc(NC(=O)c2ccc(-c3ccc(Cl)cc3)o2)c1
## Output 12

## Input Reported inhibition for Cc1cccc(NC(=N)c2ccc(-c3ccc(Cl)cc3)o2)c1.Cl : what is it?
## Output 52

FYI, the data here is from ChEMBL document CHEMBL1140726.
